Test system: human tumor cell lines (approximately 60)
Experiment: NCI in vitro human tumor cell line screen (SRB), mean graph midpoints over all cell lines
Format: cell-based
Details: Homo sapiens; total cell growth inhibition (0% growth), average of all cell lines; 48 h; read-out: log10 TGI mean graph midpoint (converted)
Cut-off 8 µM on IC (TGI), inclusive. At or above means TRUE; below means FALSE.

# sample_smiles, class_name
records = [
    ("CCCCCCCCCCCCOC[C@@]12O[C@@H](CN3CCCCCC3)[C@@H](O)[C@@H]1OC(C)(C)O2", "FALSE"),
    ("CCCCCCCCCCCCOC[C@@]12O[C@@H](CN3CCCC3)[C@@H](O)[C@@H]1OC(C)(C)O2", "FALSE"),
    ("CCCCCCCCCCCCOC[C@@]12O[C@@H](CN3CCCCCC3)[C@@H](OCCN3CCOCC3)[C@@H]1OC(C)(C)O2", "TRUE"),
    ("CCCCCCCCCCCCOC[C@@]12O[C@@H](CNCCN3CCOCC3)[C@@H](O)[C@@H]1OC(C)(C)O2", "FALSE"),
    ("CCCCCCCCCCCCOC[C@@]12O[C@@H](C)[C@@H](OCCN3CCOCC3)[C@@H]1OC(C)(C)O2", "TRUE"),
    ("CCCCCCCCCCCCOC[C@@]12O[C@@H](C)[C@@H](OCCN3CCCCC3)[C@@H]1OC(C)(C)O2", "TRUE"),
    ("CCCCCCCCCCCCOC[C@@]12O[C@@H](CNCCN3CCCCC3)[C@@H](O)[C@@H]1OC(C)(C)O2", "FALSE"),
    ("CCCCCCCCCCCCOC[C@@]12O[C@@H](CN3CCCCCC3)[C@@H](OCCCc3ccccc3)[C@@H]1OC(C)(C)O2", "TRUE"),
]
